- Tested on: Colon cancer organoid
- Method summary: Identification of compartment-specific drug sensitivities in O20 CRC organoid-stroma F20 CAF co-cultures. Organoid is transduced with Lucferase2-P2A-EGFP lentivirus, fibroblast with Renilla-dsRed lentivirus. Dual-Glo Luciferase assay is used to report viability data.
- Assay type: functional, Homo sapiens
- Set-up: dose or concentration left out as unconfirmed
- Particulars: Transduced with Renilla-dsRed lentivirus
Below, each of the compounds is paired with its reported Cell Viability value.
# number only, unit % dropped from output

Use the examples below as a reference point.
Compound	Target	Display unit	Cell Viability
C[C@@H]1CC(=O)Nc2cccc(-c3ccc4c(c3)c(-c3cnn(C)c3)nn4C)c2N1	Colon cancer organoid	%	148.573
O=C(c1ccc(F)c(F)c1Nc1ccc(I)cc1F)N1CC(O)([C@@H]2CCCCN2)C1	Colon cancer organoid	%	77.761
CCS(=O)(=O)Nc1ccc(Oc2ccc(F)cc2F)c(-c2cn(C)c(=O)c3[nH]ccc23)c1	Colon cancer organoid	%	64.2458

Determine its reported Cell Viability: Cc1ccc2[nH]c(CNCCCc3ccncc3)cc(=O)c2c1 [UCSF924NC] 109.302

Determine its reported Cell Viability: CCOc1ccc(S(=O)(=O)Nc2ccc(Cl)cc2C#Cc2cnc(C(=O)[O-])cc2OC)c2ncccc12.[K+] 117.362

====

- Test system: Colon cancer organoid
- Method summary: Identification of compartment-specific drug sensitivities in O20 CRC organoid-stroma F20 CAF co-cultures. Organoid is transduced with Lucferase2-P2A-EGFP lentivirus, fibroblast with Renilla-dsRed lentivirus. Dual-Glo Luciferase assay is used to report viability data.
- Type: functional, Homo sapiens
- Parameters: dose or concentration left out as unconfirmed
- Particulars: Transduced with Renilla-dsRed lentivirus
Non-standard residues stand in square brackets, D forms with d. Residues, ends and D or L forms follow the SMILES beside them. Arg(Me) = CNC(=N)NCCC[C@H](N)C(=O)O; d4Pal = N[C@H](Cc1ccncc1)C(=O)O; azaGly = NNC(=O)O
Parameter: Cell Viability (%)
# number only, unit % dropped from output

Compound	Experimental value
CCCCN(Cc1ccccc1)C(=O)c1ccc(S(=O)(=O)Nc2ccccc2)cc1	116.955
O=C(/C=C/N1C[C@H]2C[C@@H]1CN2c1ccccn1)c1ccccc1O	109.392
CC(C)(C)OC(=O)N1CCCC1CNC1CCC(c2cc(F)ccc2F)(S(=O)(=O)c2ccc(Cl)cc2)CC1 (stereo not given) [GSI-NC]	100.789
CCOC(=O)c1c(/C(C#N)=C\N)c2ccc(Cl)c(Cl)c2n1C	87.4636
CNC(=N)NCCC[C@H](NC(=O)[C@H](CC(C)C)NC(=O)NNC(=O)[C@H](Cc1ccccc1)NC(=O)[C@H](CO)NC(=O)[C@H](CC(N)=O)NC(=O)[C@@H](Cc1ccncc1)NC(=O)[C@H](N)Cc1ccc(O)cc1)C(=O)N[C@@H](Cc1ccccc1)C(N)=O [KISS1-305] (H-[dY][d4Pal]NSF[azaGly]L[Arg(Me)]F-NH2)	125.679

Answer briefly: Cell Viability recorded on Colon cancer organoid for N#CN1CC[C@@H](C(=O)Nc2nc3c(s2)CN(C(=O)CN=[N+]=[N-])CC3)C1 [JYQ88] 84.2967

Answer briefly: Cell Viability recorded on Colon cancer organoid for Cc1cnc(-c2cc(Cl)ccc2F)cc1-n1c(=O)n(CC(N)=O)c2cnccc21 [TP-008] 114.054

Answer briefly: Cell Viability recorded on Colon cancer organoid for CCCCNNC(=O)c1ccc(Br)cc1 114.511

Answer briefly: Cell Viability recorded on Colon cancer organoid for Cc1c(Nc2ccc(S(=O)(=O)N3CCN(C)CC3)cc2F)nc2ccc(Nc3cnn(C4CC4)c3)cn2c1=O 135.679

Answer briefly: Cell Viability recorded on Colon cancer organoid for CN(C)C/C=C/C(=O)Nc1cc2c(Nc3ccc(F)c(Cl)c3)ncnc2cc1O[C@H]1CCOC1.O=C(O)/C=C\C(=O)O.O=C(O)/C=C\C(=O)O [AFATINIB DIMALEATE] 73.123

Answer briefly: Cell Viability recorded on Colon cancer organoid for Cn1cc(-c2ccc3occ(-c4cccc(-c5ccncc5)c4)c3n2)cn1 132.411

Answer briefly: Cell Viability recorded on Colon cancer organoid for COc1nc2ccc([C@@](O)(c3ccccc3)C3CCN(C(C)=O)CC3)cc2c(Cl)c1Cc1ccc(-n2cccn2)cc1 [JNJ-54119936] 118.395

Answer briefly: Cell Viability recorded on Colon cancer organoid for CCN(CCO)CCCOc1ccc2c(Nc3cc(CC(=O)Nc4cccc(F)c4)[nH]n3)ncnc2c1 [DEFOSBARASERTIB] 225.013

Answer briefly: Cell Viability recorded on Colon cancer organoid for Cn1cc(Cl)c2c(Oc3c(F)cc(Nc4cc(Cl)nc(N)n4)cc3F)ccnc21 [BAY-4900] 109.2

Answer briefly: Cell Viability recorded on Colon cancer organoid for CCC(=O)N[C@H]1CC[C@@H](C(=O)N(C)c2ccc(-c3nc4ccccc4o3)cc2)C1 [BI 99179] 149.12
